Entries and their measured MTD follow.
Test: in vivo
Details: mouse, iv
attribute_measured: MTD

>  <molecule>
CN(Cc1cnc2nc(N)nc(N)c2n1)c1ccc(C(=O)N[C@@H](CCC(=O)O)C(=O)N[C@@H](Cc2cccc(C(C)(C)C)c2)C(=O)O)cc1 [Prodrug 12]

>  <result>
> 40 mg/kg

$$$$
>  <molecule>
CN(Cc1cnc2nc(N)nc(N)c2n1)c1ccc(C(=O)N[C@@H](CCC(=O)O)C(=O)N[C@@H](Cc2ccc(O)c(C3CCCC3)c2)C(=O)O)cc1 [Prodrug 13]

>  <result>
≥ 50 mg/kg

$$$$
>  <molecule>
CN(Cc1cnc2nc(N)nc(N)c2n1)c1ccc(C(=O)N[C@@H](CCC(=O)O)C(=O)N[C@@H](Cc2cccc(C3CCCC3)c2)C(=O)O)cc1

>  <result>
> 40 mg/kg

$$$$

* * *

Test: Stability and biodistribution of prodrugs in vivo (HPLC of plasma and tissues)
Set-up: species or system mice (CD-1 nude; BALB/C where indicated)
Conditions: mouse, spleen, 50 mg/kg, SPLEEN, 120 min, 50 mg/kg i.p. or i.v., CD-1 nude mice; read-out: stability: percentage of material observed as intact prodrug, spleen
attribute_measured: remaining at 2 h (%)

>  <molecule>
Cc1nc2ccc3ccc(CNc4ccc(C(=O)N[C@@H](CCC(=O)O)C(=O)N[C@@H](Cc5cccc6ccccc56)C(=O)O)c(F)c4)cc3c2c(=O)[nH]1 [Prodrug 3]

>  <attribute_measured>
remaining at 2 h

>  <readout_number>
89

$$$$
>  <molecule>
CN(Cc1cnc2nc(N)nc(N)c2n1)c1ccc(C(=O)N[C@@H](CCC(=O)O)C(=O)N[C@@H](Cc2ccc(O)c(C3CCCC3)c2)C(=O)O)cc1 [Prodrug 13]

>  <attribute_measured>
remaining at 2 h

>  <readout_number>
100

$$$$
>  <molecule>
CN(Cc1cnc2nc(N)nc(N)c2n1)c1ccc(C(=O)N[C@@H](CCC(=O)O)C(=O)N[C@@H](CC(=O)O)C(=O)O)cc1 [Prodrug 6]

>  <attribute_measured>
remaining at 2 h

>  <readout_number>
0

$$$$
>  <molecule>
CN(Cc1cnc2nc(N)nc(N)c2n1)c1ccc(C(=O)N[C@@H](CCC(=O)O)C(=O)N[C@@H](Cc2ccccc2C2CCCC2)C(=O)O)cc1 [Prodrug 8]

>  <attribute_measured>
remaining at 2 h

>  <readout_number>
100

$$$$
>  <molecule>
Cc1nc2ccc3ccc(CNc4ccc(C(=O)N[C@@H](CCC(=O)O)C(=O)N[C@@H](Cc5ccccc5I)C(=O)O)c(F)c4)cc3c2c(=O)[nH]1 [Prodrug 5]

>  <attribute_measured>
remaining at 2 h

>  <readout_number>
81

$$$$
>  <molecule>
CN(Cc1cnc2nc(N)nc(N)c2n1)c1ccc(C(=O)N[C@@H](CCC(=O)O)C(=O)N[C@@H](Cc2ccccc2C(=O)O)C(=O)O)cc1 [Prodrug 7]

>  <attribute_measured>
remaining at 2 h

>  <readout_number>
100

$$$$
>  <molecule>
Cc1nc2ccc3ccc(CNc4ccc(C(=O)N[C@@H](CCC(=O)O)C(=O)N[C@@H](CCC(=O)O)C(=O)O)c(F)c4)cc3c2c(=O)[nH]1 [Prodrug 1]

>  <attribute_measured>
remaining at 2 h

>  <readout_number>
100

$$$$

* * *

Experiment: Stability and biodistribution of prodrugs in vivo (HPLC of plasma and tissues)
Set-up: species or system mice (CD-1 nude; BALB/C where indicated)
Settings: KIDNEY, 30 min, 50 mg/kg i.p. or i.v., CD-1 nude mice
The following molecules are listed with their measured concentration of prodrug in kidney values.
attribute_measured: concentration of prodrug in kidney (nmol/g)

>  <molecule>
CN(Cc1cnc2nc(N)nc(N)c2n1)c1ccc(C(=O)N[C@@H](CCC(=O)O)C(=O)N[C@@H](Cc2cccc(C3CCC3)c2)C(=O)O)cc1 [Prodrug 11]

>  <units_of_measure>
nmol/g

>  <readout_number>
7.3

$$$$
>  <molecule>
CN(Cc1cnc2nc(N)nc(N)c2n1)c1ccc(C(=O)N[C@@H](CCC(=O)O)C(=O)N[C@@H](Cc2ccccc2C2CCCC2)C(=O)O)cc1 [Prodrug 8]

>  <units_of_measure>
nmol/g

>  <readout_number>
5.6

$$$$
>  <molecule>
Nc1nc(N)c(CCCNc2ccc(C(=O)N[C@@H](CCC(=O)O)C(=O)N[C@@H](Cc3cccc(C4CCCC4)c3)C(=O)O)cc2)c(=O)[nH]1 [Prodrug 14]

>  <units_of_measure>
nmol/g

>  <readout_number>
4.6

$$$$
>  <molecule>
CN(Cc1cnc2nc(N)nc(N)c2n1)c1ccc(C(=O)N[C@@H](CCC(=O)O)C(=O)N[C@@H](Cc2ccccc2C(=O)O)C(=O)O)cc1 [Prodrug 7]

>  <units_of_measure>
nmol/g

>  <readout_number>
55.4

$$$$
>  <molecule>
CN(Cc1cnc2nc(N)nc(N)c2n1)c1ccc(C(=O)N[C@@H](CCC(=O)O)C(=O)N[C@@H](Cc2ccc(O)c(C3CCCC3)c2)C(=O)O)cc1 [Prodrug 13]

>  <units_of_measure>
nmol/g

>  <readout_number>
3.7

$$$$
>  <molecule>
Cc1nc2ccc3ccc(CNc4ccc(C(=O)N[C@@H](CCC(=O)O)C(=O)N[C@@H](CCC(=O)O)C(=O)O)c(F)c4)cc3c2c(=O)[nH]1 [Prodrug 1]

>  <units_of_measure>
nmol/g

>  <readout_number>
175.8

$$$$
>  <molecule>
CN(Cc1cnc2nc(N)nc(N)c2n1)c1ccc(C(=O)N[C@@H](CCC(=O)O)C(=O)N[C@@H](Cc2ccccc2)C(=O)O)cc1 [Prodrug 10, reference compound]

>  <units_of_measure>
nmol/g

>  <readout_number>
26.9

$$$$
>  <molecule>
Cc1nc2ccc3ccc(CNc4ccc5c(c4)CN([C@@H](CCC(=O)O)C(=O)N[C@@H](Cc4ccccc4)C(=O)O)C5=O)cc3c2c(=O)[nH]1 [Prodrug 2]

>  <units_of_measure>
nmol/g

>  <readout_number>
9.0

$$$$
>  <molecule>
CN(Cc1cnc2nc(N)nc(N)c2n1)c1ccc(C(=O)N[C@@H](CCC(=O)O)C(=O)N[C@@H](Cc2cccc(C3CCCC3)c2)C(=O)O)cc1 [Prodrug 9]

>  <units_of_measure>
nmol/g

>  <readout_number>
6.8

$$$$
>  <molecule>
CN(Cc1cnc2nc(N)nc(N)c2n1)c1ccc(C(=O)N[C@@H](CCC(=O)O)C(=O)N[C@@H](CC(=O)O)C(=O)O)cc1 [Prodrug 6]

>  <units_of_measure>
nmol/g

>  <readout_number>
93.4

$$$$
>  <molecule>
CN(Cc1cnc2nc(N)nc(N)c2n1)c1ccc(C(=O)N[C@@H](CCC(=O)O)C(=O)N[C@@H](Cc2cccc(C(C)(C)C)c2)C(=O)O)cc1 [Prodrug 12]

>  <units_of_measure>
nmol/g

>  <readout_number>
2.2

$$$$
>  <molecule>
Cc1nc2ccc3ccc(CNc4ccc(C(=O)N[C@@H](CCC(=O)O)C(=O)N[C@@H](Cc5ccccc5C(=O)O)C(=O)O)c(F)c4)cc3c2c(=O)[nH]1 [Prodrug 4]

>  <units_of_measure>
nmol/g

>  <readout_number>
94.5

$$$$
>  <molecule>
Cc1nc2ccc3ccc(CNc4ccc(C(=O)N[C@@H](CCC(=O)O)C(=O)N[C@@H](Cc5ccccc5I)C(=O)O)c(F)c4)cc3c2c(=O)[nH]1 [Prodrug 5]

>  <units_of_measure>
nmol/g

>  <readout_number>
42.5

$$$$

* * *

Assay: Stability and biodistribution of prodrugs in vivo (HPLC of plasma and tissues)
Parameters: species or system mice (CD-1 nude; BALB/C where indicated)
Conditions: mouse, plasma, 50 mg/kg, PLASMA, 120 min, 50 mg/kg i.p. or i.v., CD-1 nude mice; read-out: stability: percentage of material observed as intact prodrug, plasma
attribute_measured: remaining at 2 h

>  <molecule>
Cc1nc2ccc3ccc(CNc4ccc5c(c4)CN([C@@H](CCC(=O)O)C(=O)N[C@@H](Cc4ccccc4)C(=O)O)C5=O)cc3c2c(=O)[nH]1 [Prodrug 2]

>  <result>
93%

$$$$
>  <molecule>
Cc1nc2ccc3ccc(CNc4ccc(C(=O)N[C@@H](CCC(=O)O)C(=O)N[C@@H](CCC(=O)O)C(=O)O)c(F)c4)cc3c2c(=O)[nH]1 [Prodrug 1]

>  <result>
100%

$$$$
>  <molecule>
CN(Cc1cnc2nc(N)nc(N)c2n1)c1ccc(C(=O)N[C@@H](CCC(=O)O)C(=O)N[C@@H](Cc2ccccc2C2CCCC2)C(=O)O)cc1 [Prodrug 8]

>  <result>
90%

$$$$
>  <molecule>
CN(Cc1cnc2nc(N)nc(N)c2n1)c1ccc(C(=O)N[C@@H](CCC(=O)O)C(=O)N[C@@H](CC(=O)O)C(=O)O)cc1 [Prodrug 6]

>  <result>
100%

$$$$

* * *

The following compounds are shown together with reported remaining at 2 h values.
Experiment: Stability and biodistribution of prodrugs in vivo (HPLC of plasma and tissues)
Parameters: species or system mice (CD-1 nude; BALB/C where indicated)
Settings: mouse, large intestine, 50 mg/kg, LARGE INTESTINE, 120 min, 50 mg/kg i.p. or i.v., CD-1 nude mice; read-out: stability: percentage of material observed as intact prodrug, large intestine

>  <compound>
CN(Cc1cnc2nc(N)nc(N)c2n1)c1ccc(C(=O)N[C@@H](CCC(=O)O)C(=O)N[C@@H](Cc2cccc(C3CCCC3)c2)C(=O)O)cc1 [Prodrug 9]

>  <remaining at 2 h, %>
100

$$$$
>  <compound>
CN(Cc1cnc2nc(N)nc(N)c2n1)c1ccc(C(=O)N[C@@H](CCC(=O)O)C(=O)N[C@@H](CC(=O)O)C(=O)O)cc1 [Prodrug 6]

>  <remaining at 2 h, %>
65

$$$$
>  <compound>
CN(Cc1cnc2nc(N)nc(N)c2n1)c1ccc(C(=O)N[C@@H](CCC(=O)O)C(=O)N[C@@H](Cc2ccccc2C2CCCC2)C(=O)O)cc1 [Prodrug 8]

>  <remaining at 2 h, %>
57

$$$$
>  <compound>
Cc1nc2ccc3ccc(CNc4ccc(C(=O)N[C@@H](CCC(=O)O)C(=O)N[C@@H](Cc5ccccc5C(=O)O)C(=O)O)c(F)c4)cc3c2c(=O)[nH]1 [Prodrug 4]

>  <remaining at 2 h, %>
100

$$$$
>  <compound>
CN(Cc1cnc2nc(N)nc(N)c2n1)c1ccc(C(=O)N[C@@H](CCC(=O)O)C(=O)N[C@@H](Cc2ccccc2C(=O)O)C(=O)O)cc1 [Prodrug 7]

>  <remaining at 2 h, %>
100

$$$$
>  <compound>
CN(Cc1cnc2nc(N)nc(N)c2n1)c1ccc(C(=O)N[C@@H](CCC(=O)O)C(=O)N[C@@H](Cc2cccc(C(C)(C)C)c2)C(=O)O)cc1 [Prodrug 12]

>  <remaining at 2 h, %>
66.9

$$$$
>  <compound>
CN(Cc1cnc2nc(N)nc(N)c2n1)c1ccc(C(=O)N[C@@H](CCC(=O)O)C(=O)N[C@@H](Cc2ccc(O)c(C3CCCC3)c2)C(=O)O)cc1 [Prodrug 13]

>  <remaining at 2 h, %>
100

$$$$
>  <compound>
Cc1nc2ccc3ccc(CNc4ccc(C(=O)N[C@@H](CCC(=O)O)C(=O)N[C@@H](Cc5cccc6ccccc56)C(=O)O)c(F)c4)cc3c2c(=O)[nH]1 [Prodrug 3]

>  <remaining at 2 h, %>
89

$$$$
>  <compound>
Nc1nc(N)c(CCCNc2ccc(C(=O)N[C@@H](CCC(=O)O)C(=O)N[C@@H](Cc3cccc(C4CCCC4)c3)C(=O)O)cc2)c(=O)[nH]1 [Prodrug 14]

>  <remaining at 2 h, %>
76.8

$$$$
>  <compound>
CN(Cc1cnc2nc(N)nc(N)c2n1)c1ccc(C(=O)N[C@@H](CCC(=O)O)C(=O)N[C@@H](Cc2cccc(C3CCC3)c2)C(=O)O)cc1 [Prodrug 11]

>  <remaining at 2 h, %>
85

$$$$
